Test system: Bladder carcinoma 5637 cells
Experiment: Cytotoxicity counterscreen, CellTiter Glo, 72 hr
Format: cell-based, human
Experimental: B. Counterscreen: Cytotoxicity Screening for Potential Inhibitors of Bacterial Capsule Biogenesis. Purpose: This cell-based assay measures the cytotoxicity of compounds in bladder carcinoma 5637 cells using luminescent cell viability assay readout. […] Assay Description: Cytotoxicity: Dose response testing (dose range=300-0.58 μM) established the hit cytotoxicity data. […] Bladder carcinoma 5637 cells were added to the compounds, and 72 hr later cell viability was measured using CellTiter Glo (38). […]
Recorded IC50 for the following molecules
Kindly provide the numeric value in µM only, without the unit symbol.

Before answering, review these 5 worked examples.
- compound-structure: "O=C(O)c1sc(-c2ccc(OCCC(F)(F)F)cc2)cc1NC(=O)c1c(F)cccc1F"
  value-unit: "µM"
  IC50: 68.4
- compound-structure: "CCOc1ccc(-c2cc(NC(=O)c3c(F)cccc3C(F)(F)F)c(C(=O)O)s2)cc1"
  value-unit: "µM"
  IC50: 62
- compound-structure: "CC(C)(C)c1ccc(-c2cc(NC(=O)c3c(F)cccc3F)c(C(=O)O)s2)cc1"
  value-unit: "µM"
  IC50: 35.1
- compound-structure: "COc1ccc(-c2cc(NC(=O)c3cccc(F)c3)c(C(=O)O)s2)cc1"
  value-unit: "µM"
  IC50: 44.8
- compound-structure: "CCCCOc1ccc(-c2cc(NC(=O)c3ccc(Br)o3)c(C(=O)O)s2)cc1"
  value-unit: "µM"
  IC50: 43.4

I'd like to know its IC50. The molecule in question is [N-]=[N+]=NCCOc1ccc(-c2cc(NC(=O)c3c(F)cccc3F)c(C(=O)O)s2)cc1
273

Item: CCOc1ccc(-c2cc(NC(=O)c3ccc(Br)s3)c(C(=O)O)s2)cc1
49.7

Item: Cc1ccc(-c2cc(NC(=O)c3ccc(Br)o3)c(C(=O)O)s2)cc1
50.7

* * *

System: E. coli K1 strain UTI89
Test: microbe, parasite or virus in culture
Settings: Escherichia coli, read-out: K1 Capsule IC50, commercial sample, SID 103147605
endpoint: pIC50
pIC50 is a log-scale quantity: -log10 of the concentration expressed in molar.

Missing value: pIC50, E. coli K1 strain UTI89, entry CCOc1ccc(-c2cc(NC(=O)c3c(F)cccc3F)c(C(=O)O)s2)cc1 [ML317] . Fill in?
5.35

* * *

Recorded log10 IC50 for the following compounds
Tested on: E. coli K1 strain UTI89
Experiment: microbe, parasite or virus in culture
Conditions: read-out: K1 phage IC50; second round of synthetic analogues, n = 3
Scale: log10; quantity: IC50; unit before log: µM

I'd like to know its log10 IC50. The compound in question is O=C(Nc1cc(-c2ccc(OCCC(F)(F)F)cc2)sc1C(=O)O)c1ccc(Br)o1
-0.08

Item: CCCCOc1ccc(-c2cc(NC(=O)c3cc(Br)c(Br)o3)c(C(=O)O)s2)cc1
1.37

* * *

System: Bladder carcinoma 5637 cells
Experiment: Cytotoxicity counterscreen, CellTiter Glo, 72 hr
Format: cell-based, human
# if measured IC50 < 40 µM: y  # else: n

The examples below pair each entry with its known result.
- compound-structure: "O=C(Nc1cc(-c2ccc(OC(F)(F)F)cc2)sc1C(=O)O)c1ccc(Br)o1"
  assigned-label: "y"
- compound-structure: "O=C(O)c1sc(-c2ccc(OCCCC(F)(F)F)cc2)cc1NC(=O)c1c(F)cc(F)cc1F"
  assigned-label: "n"
- compound-structure: "CCCc1ccc(-c2cc(NC(=O)c3c(F)cc(F)cc3F)c(C(=O)O)s2)cc1"
  assigned-label: "n"
- compound-structure: "CCOc1ccc(-c2cc(NC(=O)c3cc4ccccc4o3)c(C(=O)O)s2)cc1"
  assigned-label: "n"
- compound-structure: "CCOc1ccc(-c2cc(NC(=O)c3c(F)cc(F)cc3F)c(C(=O)O)s2)cc1"
  assigned-label: "n"

# strict comparison: is reported IC50 < 40 µM? input = O=C(Nc1cc(-c2ccc(OCCCC(F)(F)F)cc2)sc1C(=O)O)c1ccc(Br)o1
y

Item: O=C(Nc1cc(-c2ccccc2)sc1C(=O)O)c1cc2ccccc2o1
n

Item: O=C(Nc1cc(-c2ccc(C(F)(F)F)cc2)sc1C(=O)O)c1ccc(Br)s1
y

Item: CC(C)(C)c1ccc(-c2cc(NC(=O)c3cccc(F)c3)c(C(=O)O)s2)cc1
y
